target: von Hippel-Lindau disease tumor suppressor/Androgen receptor (Homo sapiens, UniProt P10275+P40337)
Sequence (P10275 whole entry, looked up): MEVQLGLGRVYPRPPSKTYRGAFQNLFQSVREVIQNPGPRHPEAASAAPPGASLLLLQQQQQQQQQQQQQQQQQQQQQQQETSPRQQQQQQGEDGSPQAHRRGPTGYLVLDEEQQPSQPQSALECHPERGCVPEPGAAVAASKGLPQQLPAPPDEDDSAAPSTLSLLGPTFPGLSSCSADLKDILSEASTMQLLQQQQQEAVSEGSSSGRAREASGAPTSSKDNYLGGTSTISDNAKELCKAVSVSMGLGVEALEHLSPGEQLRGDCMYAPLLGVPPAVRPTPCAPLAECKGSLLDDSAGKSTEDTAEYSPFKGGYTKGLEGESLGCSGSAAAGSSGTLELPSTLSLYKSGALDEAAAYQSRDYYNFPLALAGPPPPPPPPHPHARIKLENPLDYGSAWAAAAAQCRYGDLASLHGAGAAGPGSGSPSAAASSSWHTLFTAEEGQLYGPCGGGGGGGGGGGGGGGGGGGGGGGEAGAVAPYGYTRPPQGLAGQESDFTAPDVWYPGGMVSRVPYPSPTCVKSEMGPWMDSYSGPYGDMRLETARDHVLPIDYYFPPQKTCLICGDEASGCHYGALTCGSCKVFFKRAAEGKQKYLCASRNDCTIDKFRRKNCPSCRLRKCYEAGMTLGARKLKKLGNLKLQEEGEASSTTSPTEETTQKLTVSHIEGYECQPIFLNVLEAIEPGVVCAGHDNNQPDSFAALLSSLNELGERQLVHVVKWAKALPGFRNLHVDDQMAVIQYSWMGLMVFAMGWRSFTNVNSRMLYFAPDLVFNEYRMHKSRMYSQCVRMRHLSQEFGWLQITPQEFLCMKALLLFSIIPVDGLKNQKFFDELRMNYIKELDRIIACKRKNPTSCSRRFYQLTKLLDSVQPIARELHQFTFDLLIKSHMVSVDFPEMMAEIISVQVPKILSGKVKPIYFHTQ
Sequence (P40337 whole entry, looked up): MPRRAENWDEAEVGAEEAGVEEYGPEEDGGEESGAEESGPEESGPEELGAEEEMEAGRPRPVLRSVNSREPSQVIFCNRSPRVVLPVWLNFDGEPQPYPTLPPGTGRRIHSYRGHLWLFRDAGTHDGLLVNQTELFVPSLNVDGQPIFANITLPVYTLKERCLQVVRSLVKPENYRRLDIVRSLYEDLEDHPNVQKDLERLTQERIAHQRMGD
experimental details: Protac activity at E3-ubiquitin ligase/AR in human LNCAP cells assessed as time taken for maximum degradation by ELISA
Type: cell-based
Could you please report measured TIME for the items listed next?
Number only, in h; omit the unit.

Query string: Fill blank: measured TIME of the compound Cc1ncsc1-c1ccc(CNC(=O)[C@@H]2C[C@@H](O)CN2C(=O)[C@@H](NC(=O)COCCCCOc2ccc(-c3ccc(N4C(=S)N(c5ccc(C#N)c(C(F)(F)F)c5)C(=O)C4(C)C)cc3)cc2)C(C)(C)C)cc1 is ____.
Result string: 4

Query string: Need TIME, item Cc1ncsc1-c1ccc(CNC(=O)[C@@H]2C[C@@H](O)CN2C(=O)[C@@H](NC(=O)COCCCOCCCCCOc2ccc(N3C(=S)N(c4ccc(C#N)c(C(F)(F)F)c4)C(=O)C3(C)C)cc2)C(C)(C)C)cc1
Result string: 4

Query string: TIME lookup needed for Cc1ncsc1-c1ccc(CNC(=O)[C@@H]2C[C@@H](O)CN2C(=O)[C@@H](NC(=O)COCCCOCCCCOc2ccc(N3C(=S)N(c4cnc(C#N)c(C(F)(F)F)c4)C(=O)C3(C)C)cc2)C(C)(C)C)cc1 , thanks.
Result string: 4

----------
target: von Hippel-Lindau disease tumor suppressor/Androgen receptor (Homo sapiens, UniProt P10275+P40337)
experimental details: Protac activity at E3-ubiquitin ligase/AR in human VCaP cells assessed as AR degradation up to 15 mins by ELISA relative to control
Assay type: cell-based
Design: concentration or dose not given beside the values
Would you mind telling me the reported Activity of each entry?
Please state the figure in %; there is no need to write the unit.

Query string: What value of Activity has been recorded for this entry: Cc1ncsc1-c1ccc(CNC(=O)[C@@H]2C[C@@H](O)CN2C(=O)[C@@H](NC(=O)COCCCOCCCCOc2ccc(N3C(=S)N(c4ccc(C#N)c(Cl)c4)C(=O)C3(C)C)cc2)C(C)(C)C)cc1
Result string: 50

Query string: Given Cc1ncsc1-c1ccc(CNC(=O)[C@@H]2C[C@@H](O)CN2C(=O)[C@@H](NC(=O)COCCCOCCCCCOc2ccc(N3C(=S)N(c4cnc(C#N)c(C(F)(F)F)c4)C(=O)C3(C)C)cc2)C(C)(C)C)cc1 , state its recorded Activity.
Result string: 50

Query string: Would you kindly share the measured Activity for Cc1ncsc1-c1ccc(CNC(=O)[C@@H]2C[C@@H](O)CN2C(=O)[C@@H](NC(=O)COCCCOCCCCOc2ccc(N3C(=S)N(c4cnc(C#N)c(C(F)(F)F)c4)C(=O)C3(C)C)cc2)C(C)(C)C)cc1 ?
Result string: 50
